# Test Summary: physchem
Positions of bridges follow the written chain, without caps; N, C: chain ends. Non-standard residues stand in square brackets, D forms with d. Residues, ends and D or L forms follow the SMILES beside them. ξ: configuration not given here. *: point of attachment. X1 = CCN([C@@H](C)C(=O)C[C@@H](CCCCNC(=O)CCC(F)(F)C(F)(F)C(F)(F)C(F)(F)C(F)(F)C(F)(F)C(F)(F)C(F)(F)F)C(=O)NCC(N)=O)*; Ile(3ξ) = CCC(C)[C@H](N)C(=O)O
Measured Property: solubility at 2 min

(Q) Recorded solubility at 2 min of CCC(C)[C@@H]1NC(=O)[C@H](Cc2ccc(O)cc2)NC(=O)[C@@H](N)CSSC[C@@H](C(=O)N(CC)[C@@H](C)C(=O)C[C@@H](CCCCNC(=O)CCC(F)(F)C(F)(F)C(F)(F)C(F)(F)C(F)(F)C(F)(F)C(F)(F)C(F)(F)F)C(=O)NCC(N)=O)NC(=O)[C@H](CC(N)=O)NC(=O)[C@H](CCC(N)=O)NC1=O (stereo partly drawn) [SR-11-74] (H-CY[Ile(3ξ)]QNC-X1; disulfide 1-6) , please.
(A) > 100 µM

(Q) How about CSCC[C@H](NC(=O)[C@@H]1CCCN1C(=O)CNC(=O)[C@H](CCCCN)NC(=O)[C@H](Cc1c[nH]cn1)NC(=O)[C@H](CO)NC(=O)[C@H](CC(C)C)NC(=O)[C@H](CCCNC(=N)N)NC(=O)[C@@H]1CCCN1C(=O)[C@H](CCCNC(=N)N)NC(=O)[C@H](CCC(N)=O)NC(=O)CCC(F)(F)C(F)(F)C(F)(F)C(F)(F)C(F)(F)C(F)(F)C(F)(F)C(F)(F)F)C(=O)N1CCC[C@H]1C(=O)N[C@@H](Cc1ccccc1)C(=O)O ?
(A) > 100 µM

(Q) How about CC[C@H](C)[C@@H]1NC(=O)[C@H](Cc2ccc(O)cc2)NC(=O)[C@@H](N)CSSC[C@@H](C(=O)N2CCC[C@H]2C(=O)N[C@@H](CC(C)C)C(=O)NCC(N)=O)NC(=O)[C@H](CC(N)=O)NC(=O)[C@H](CCC(N)=O)NC1=O [Oxytocin, reference compound] ?
(A) > 100 µM
